- tested-target: human SIRPα expressed on cells (PMA-differentiated THP-1 macrophages; A549 cells) (human, UniProt P78324 31-504)
- test-method-notes: fluorescence microscopy saturation binding; live THP-1 macrophages, corrected by subtracting nS-X-FAM
pKd: −log10 of the molar value. No end group written: not given here. FAM = 5(6)-carboxyfluorescein
measured-endpoint: pKd

K(FAM)VTELFREG-NH2 [FAM-labeled nS-F] :: 4.03

a: K(FAM)VTELTREG-NH2 [FAM-labeled nS-wt]
b: K(FAM)VTELVREG-NH2 [FAM-labeled nS-V]
# returns the entry with the larger pKd; inputs a and b Please reply using the label of the selected record. a
